CC50 values for the compounds below.
Assay: in vitro
Conditions: African green monkey
measure: CC50

INSERT INTO assay_data (compound, measure, result) VALUES
  ('Nc1ncnc2c1ncn2[C@@H]1O[C@H](C[C@@H](N)CC[C@H](N)C(=O)O)[C@@H](O)[C@H]1O [Sinefungin, reference compound]', 'CC50', '> 1000 µM'),
  ('CCNc1nc(C)cc(N2CCN(C(=O)c3ccc(F)cc3)CC2)n1', 'CC50', '> 100 µM'),
  ('CCNc1nc(C)cc(N2CCN(C(=O)c3ccc(C)cc3)CC2)n1', 'CC50', '25 µM'),
  ('Nc1ncnc2c1ncn2C1C(F)=C(CCO)C(O)C1O (centres unmarked)', 'CC50', '> 250 µM'),
  ('CCC1=NC2C(N=NN2c2cccc(OC(C)C)c2)C(=O)N1 (centres unmarked)', 'CC50', '> 100 µM');
